Numbers sourced from patent US20220389088A1.

koff reference
Target: T1, recombinant human cANGPTL4 (C-terminus fibrinogen-like signaling peptide of angiopoietin-like 4) (human, UniProt Q9BY76 166-406)
T1 construct: also called C-terminus of ANGPTL4
T1 sequence: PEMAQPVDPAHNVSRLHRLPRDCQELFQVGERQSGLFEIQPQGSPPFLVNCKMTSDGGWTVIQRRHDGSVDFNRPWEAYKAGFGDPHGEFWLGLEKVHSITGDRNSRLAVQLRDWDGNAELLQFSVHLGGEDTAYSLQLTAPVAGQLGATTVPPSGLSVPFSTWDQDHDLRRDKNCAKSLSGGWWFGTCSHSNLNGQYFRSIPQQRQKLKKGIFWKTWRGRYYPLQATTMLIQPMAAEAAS
Assay: SPR (Reichert 2SPR), purified recombinant human cANGPTL4
Procedure: The kinetic binding parameters and affinity of the purified antibodies was determined by surface plasmon resonance (SPR) using Reichert 2SPR machine (Reichert Technologies) and purified recombinant human cANGPTL4 (Table 2).
Reply numerically in s⁻¹, unit not repeated.

In the examples that follow, each entry is paired with its recorded koff.
>>> meas_value("Ab-E, monoclonal rat-anti-human cANGPTL4 antibody (antibody, V domains shown) VH: EVQLVESGGGLVQPGRSMKLSCAASGFTFSSFAMAWVRQAPTKGLEWVASISYDGGNTYYRDSVKGRFTISRDNAKSSLYLQMDSLRSEDTSTYYCASADLIWWYFDFWGPGTMVTVSS VL: DIQMTQSPASLSASLEEIVTITCQASQDIGNWLAWYQQKPGKSPQLLIYGSTSLADGVPSRFSGSRSGTQYSLKISRLQVEDIGIYYCQQASSAPPTFGAGTKLELK")
"8.07e-05"
>>> meas_value("Ab-B, monoclonal rat-anti-human cANGPTL4 antibody (antibody, V domains shown) VH: EVQLVESGGGLVQPGRSLKLSCAASGFTFSNYGMAWVRQTPTKGLEWVASISTGGSDTYYRDSVKGRFTISRDNAKNTQYLQMDSLRSEDTATYYCARQGFTEDTDYWGQGVMVTVSS VL: DIQMTQSPSFLSASVGDRVTINCKASQNINKYLNWYQQKLGEAPKRLIYNTNNLQTGIPSRFSGSGSGTDYTLTISSLQPEDFATYFCLQHNSFPGTFGGGTKLELK")
"3.69e-05"
>>> meas_value("Ab-D, monoclonal rat-anti-human cANGPTL4 antibody (antibody, V domains shown, also called Antibody Ab-D) VH: EVQLVESGGGLVQPGRSLKLSCAASGFTFSNYGMAWVRQTPTKGLEWVASISTGGGNTYYRDSVKGRFTISRDNAKNTQYLQMDSLRSEDTATYYCARDSTVDYFDYWGQGVMVTVSS VL: DIQMTQSPSFLSASVGDRVTINCKASQKINKYLNWYQQKLGEAPKRLIYNTNNLQTGIPSRFSGSGSGTDFTLTISSLQPEDFATYCCLQHNSFPGTFGGGTKLELK")
"3.89e-05"

Lab note: next binder to report on.
What value of koff has been recorded for this entry: Ab-C, monoclonal rat-anti-human cANGPTL4 antibody (antibody, V domains shown) VH: EVQLVDSGGGLVQPGRSLKLSCAASGFTFSNYGMAWVRQIPTKGLEWVASISSGGGNTYYRDSVKGRFTISRDNAKNTQYLQMDSLRSEDTATYYCARDPGITGFDYWGQGVMVTVSS VL: DIQMTQSPSFLSASVGDRVTINCKASQNINKYLNWYQQKLGEAPKRLIYNTNTLQTGIPSRFSGSGSGTDYTLTISSLQPEDFATYFCLQHNSFPGTFGPGTTLELK
1.35e-05
